All values here come from ChEMBL document CHEMBL5257030.

# Test system: A549
# assay procedure: Antiproliferative activity against human A549 cells after 72 hrs by Alamar blue assay
# Format: functional, cell-based
# applied conditions: A549, 72 h
pIC50: −log10 of the molar value.
measured metric: pIC50

pIC50 of COc1ccc(-c2cc(=O)c3c(O)cc(O[C@@H]4O[C@H](CO[C@@H]5O[C@@H](C)[C@H](O)[C@@H](O)[C@H]5O)[C@@H](O)[C@H](O)[C@H]4O)cc3o2)cc1O [DIOSMIN] on A549? < 4.40

----------
# Tested on: MDA-MB-231
# assay procedure: Antiproliferative activity against human MDA-MB-231 cells assessed as inhibition of cell growth measured after 24 hrs by MTT assay
# Assay type: functional, cell-based
# applied conditions: MDA-MB-231, 24 h
measured metric: IC50 (µM)
Give bare numbers, in µM.

Quick check: IC50 of COc1ccc(-c2cc(=O)c3c(O)cc(O[C@@H]4O[C@H](CO[C@@H]5O[C@@H](C)[C@H](O)[C@@H](O)[C@H]5O)[C@@H](O)[C@H](O)[C@H]4O)cc3o2)cc1O ? 70
